Listed here: items and their measured Sorp. (%).
# test_details: Hygroscopicity by dynamic vapor sorption (DVS) at 25° C.
# Format: physicochemical
# particulars: DVS 25° C., 50% RH, 1st sorption

{"columns": ["compound", "Sorp. (%)"],
 "data": [
  ["CCOc1cc(C(=O)N(C)Cc2cnc(CO)c3cn[nH]c23)ccc1-c1cc(F)cc(F)c1.Cl [HCl salt Pattern A]", 0.80],
  ["CCOc1cc(C(=O)N(C)Cc2cnc(CO)c3cn[nH]c23)ccc1-c1cc(F)cc(F)c1.[Na] [Sodium salt Pattern A]", 0.49],
  ["CCOc1cc(C(=O)N(C)Cc2cnc(CO)c3cn[nH]c23)ccc1-c1cc(F)cc(F)c1 [Free form Pattern A]", 3.90],
  ["CCOc1cc(C(=O)N(C)Cc2cnc(CO)c3cn[nH]c23)ccc1-c1cc(F)cc(F)c1.O=P(O)(O)O [Phosphate salt Pattern A]", 0.27]
]}
